Assay: Copper(I) binding constant of NNSN compounds (1H-NMR titration with CuBr in D4-methanol)
Details: Cu-NNSN 1:1 stoichiometry
Mark YES for Binding constant under 2000 M⁻¹, NO if at or over.

O=[N+]([O-])c1ccc(NC(=S)n2cccn2)cc1 ... NO
Cn1ccc(NC(=S)Nc2ccc(Cl)cc2)n1 ... YES
O=[N+]([O-])c1cnn(C(=S)Nc2ccc(Cl)cc2)c1 [SB30] ... YES
Cc1ccn(C(=S)Nc2ccc(Cl)cc2)n1 ... NO
CC(C)(C)n1ccc(NC(=O)Nc2ccc(Cl)cc2)n1 ... YES

Req: Regarding Fc1ccc(NC(=S)n2cccn2)cc1 , kindly confirm whether its Binding constant is beneath 2000 M⁻¹.
Resp: NO

Req: Lab log: compare recorded Binding constant with 2000 M⁻¹; is it strictly lower for COc1ccc(NC(=S)n2cccn2)cc1 ?
Resp: NO

Req: Answer whether the compound FC(F)(F)c1ccn(C(=S)Nc2ccc(Cl)cc2)n1 has Binding constant strictly less than 2000 M⁻¹
Resp: YES

----------
Experiment: Copper(I) binding constant of NNSN compounds (1H-NMR titration with CuBr in D4-methanol)
Conditions: Table I
measure: Copper (I) binding constant (M⁻¹)
Field format: number, assumed M⁻¹, no unit text.

Cc1ccc(NC(=S)n2ccc(N)n2)cc1 [SB32] ... 6140

Measured Copper (I) binding constant, Cc1ccc(NC(=S)n2cccn2)cc1 [SB25, N-(p-tolyl)-1H-pyrazole-1-carbothioamide] : 1635

Field Copper (I) binding constant (entry Nc1ccn(C(=S)Nc2ccc([N+](=O)[O-])cc2)n1 [SB27] ) reads 10460

Sample COc1ccc(NC(=S)n2cccn2)cc1 [SB22] ; Copper (I) binding constant observed: 3975

For reference, reported Copper (I) binding constant for Nc1ccn(C(=S)Nc2ccc(F)cc2)n1 [SB37] stands at 5540

Record summary for Nc1ccn(C(=S)Nc2ccc(Cl)cc2)n1 [APM03] : reported Copper (I) binding constant = 53225

// recorded Copper (I) binding constant for CN(C)c1ccn(C(=S)Nc2ccc(Cl)cc2)n1 [SB40] : 58500

For Nc1ccn(C(=S)Nc2ccc(Br)cc2)n1 [SB33] the compound record lists Copper (I) binding constant as 5830

Note to self: Copper (I) binding constant recorded for COC(=O)c1ccn(C(=S)Nc2cccc(Cl)c2)n1 [SB74] was 1127.86

Reported Copper (I) binding constant ( S=C(Nc1ccc(Br)cc1)n1cccn1 [SB26] ) = 1550

Kindly note the recorded Copper (I) binding constant for COC(=O)c1ccn(C(=S)Nc2ccccc2Cl)n1 [SB73] , which is 985.27

Entry COc1ccc(NC(=S)n2ccc(N)n2)cc1 [SB31] — recorded Copper (I) binding constant = 5452

Query CCOC(=O)c1ccn(C(=S)Nc2ccc(Cl)cc2)n1 [SB77] yields Copper (I) binding constant of 1580.08

----------
Test: Copper(I) binding constant of NNSN compounds (1H-NMR titration with CuBr in D4-methanol)
Conditions: Cu-NNSN 1:1 stoichiometry
# Binding constant per record follows

S=C(Nc1ccc(Cl)cc1)n1cccn1 ... 2100 M⁻¹
O=[N+]([O-])c1ccc(NC(=S)Nc2cc[nH]n2)cc1 [SB28] ... 1200 M⁻¹
Cn1ccc(NC(=O)Nc2ccc(Cl)cc2)n1 [SB11] ... < 100 M⁻¹
O=[N+]([O-])c1cnn(C(=S)Nc2ccc(Cl)cc2)c1 [SB38] ... < 100 M⁻¹
Nc1cnn(C(=S)Nc2ccc(Cl)cc2)c1 [SB39] ... 2200 M⁻¹

Here's the next entry for you.
Binding constant measured on S=C(Nc1ccc(Cl)cc1)n1ccnn1 [SB18] = < 1000 M⁻¹
